test target: Q9I291
method summary: SEC; as a1, but the more diluted sample of mutants with dilution-dependent behaviour (footnote b of Table 1; broken lines in Fig. 5 and Fig. S9)
readout kind: N of the monomer peak (minor peak)
Could you keep your reply to the number by itself?

Short answer for PaUGP R101A (enzyme, UDP-glucose pyrophosphorylase of Pseudomonas aeruginosa (galU), residues 1-279, point mutant of Strep-PaUGP; Same construct as m1; source: E. coli BL21(DE3), purified (Strep-Tactin Sepharose); not shown: Strep-tagII, N-terminal, kept) MIKKCLFPAAGYGTRFLPATKAMPKEMLPVVNKPLIQYAVEEALEAGLSEIGIVTGRGKRSLEDHFDISYELEHQIRNTDKEKYLVGIRRLIDECTFAYTAQVEMKGLGHAILTGRPLIGDEPFAVVLADDLCLNLEGDSVLKQMVKLYNQFRCSIVAIQEVPPEETNKYGVIAGEMIRDDIFRVNTMVEKPKPEEAPSNLAIIGRYILTPDIFDLIEQTEPGKGGEIQITDALMKQAQDGCVLAYKFKGKRFDCGSAEGYIEATNFCYENLYKTGKAH : N of the monomer peak (minor peak) was 1.2

Recorded N of the monomer peak (minor peak) (protein PaUGP R57A (enzyme, UDP-glucose pyrophosphorylase of Pseudomonas aeruginosa (galU), residues 1-279, point mutant of Strep-PaUGP; Same construct as m1; source: E. coli BL21(DE3), purified (Strep-Tactin Sepharose); not shown: Strep-tagII, N-terminal, kept) MIKKCLFPAAGYGTRFLPATKAMPKEMLPVVNKPLIQYAVEEALEAGLSEIGIVTGAGKRSLEDHFDISYELEHQIRNTDKEKYLVGIRRLIDECTFAYTRQVEMKGLGHAILTGRPLIGDEPFAVVLADDLCLNLEGDSVLKQMVKLYNQFRCSIVAIQEVPPEETNKYGVIAGEMIRDDIFRVNTMVEKPKPEEAPSNLAIIGRYILTPDIFDLIEQTEPGKGGEIQITDALMKQAQDGCVLAYKFKGKRFDCGSAEGYIEATNFCYENLYKTGKAH ): 1.2

// PaUGP R57K (enzyme, UDP-glucose pyrophosphorylase of Pseudomonas aeruginosa (galU), residues 1-279, point mutant of Strep-PaUGP; Same construct as m1; source: E. coli BL21(DE3), purified (Strep-Tactin Sepharose); not shown: Strep-tagII, N-terminal, kept) MIKKCLFPAAGYGTRFLPATKAMPKEMLPVVNKPLIQYAVEEALEAGLSEIGIVTGKGKRSLEDHFDISYELEHQIRNTDKEKYLVGIRRLIDECTFAYTRQVEMKGLGHAILTGRPLIGDEPFAVVLADDLCLNLEGDSVLKQMVKLYNQFRCSIVAIQEVPPEETNKYGVIAGEMIRDDIFRVNTMVEKPKPEEAPSNLAIIGRYILTPDIFDLIEQTEPGKGGEIQITDALMKQAQDGCVLAYKFKGKRFDCGSAEGYIEATNFCYENLYKTGKAH : N of the monomer peak (minor peak) value = 1.2

Consider PaUGP R101K (enzyme, UDP-glucose pyrophosphorylase of Pseudomonas aeruginosa (galU), residues 1-279, point mutant of Strep-PaUGP; Same construct as m1; source: E. coli BL21(DE3), purified (Strep-Tactin Sepharose); not shown: Strep-tagII, N-terminal, kept) MIKKCLFPAAGYGTRFLPATKAMPKEMLPVVNKPLIQYAVEEALEAGLSEIGIVTGRGKRSLEDHFDISYELEHQIRNTDKEKYLVGIRRLIDECTFAYTKQVEMKGLGHAILTGRPLIGDEPFAVVLADDLCLNLEGDSVLKQMVKLYNQFRCSIVAIQEVPPEETNKYGVIAGEMIRDDIFRVNTMVEKPKPEEAPSNLAIIGRYILTPDIFDLIEQTEPGKGGEIQITDALMKQAQDGCVLAYKFKGKRFDCGSAEGYIEATNFCYENLYKTGKAH . Its measured N of the monomer peak (minor peak) is 1.2
